System: SARS-CoV-2 S BA.5
Type: cell-based
EXPERIMENTAL SETUP: read-out: IC50, inhibition of S-mediated cell–cell fusion, SARS-CoV-2 BA.5
ATTRIBUTE MEASURED: IC50 (nM)
Return type: number; implicit unit nM.

Print SARS-CoV-2 S BA.5 IC50 for Ac-DISQINASVVNIEYEIKKLEEVAKKLEESLIDLQEL-NH2 [QE] . 7

Print SARS-CoV-2 S BA.5 IC50 for Ac-SIDQINATFVDIEYEIKKLEEVAKKLEESYIDLKEL-NH2 [SK] . 6.2

Print SARS-CoV-2 S BA.5 IC50 for Ac-PDVDLGDISQINASVVNIEYEIKKLEEVAKKLEESLIDLQEL-NH2 [QE-EXT] . 5.6
